Conditions: 303.15 K; 100 kPa; Liquid; Falling or rolling sphere viscometry
endpoint: viscosity (mPa·s)
Numbers only, in mPa·s.

molecule=CC1CCCCC1 endpoint=viscosity reported=0.645

For every record below, what is its viscosity?
1. CCCCC1CCCCC1
2. CCC1CCCCC1
3. C1CCC(C2CCCCC2)CC1

A.
1. 1.109
2. 0.748
3. 3.145

###

Conditions: 313.15 K; 100 kPa; Liquid; Falling or rolling sphere viscometry
Would you mind telling me the reported viscosity of each entry?
Answers are plain numbers, in mPa·s.

Solved cases (3 shown):
molecule=C1CCC(C2CCCCC2)CC1 endpoint_unit=mPa·s reported=2.54
molecule=CCCCC1CCCCC1 endpoint_unit=mPa·s reported=0.96
molecule=CCC1CCCCC1 endpoint_unit=mPa·s reported=0.665

Kindly review the next molecule as well.
Q. Give its viscosity value. Item: "CC1CCCCC1"
A. 0.575

###

Conditions: 303.15 K; 100 kPa; Liquid; Vibrating tube method
± gives the expanded uncertainty stated by the source.
Would you mind telling me the reported mass density of each entry?
Mention the unit after the number when you answer.

molecule=C1CCC(C2CCCCC2)CC1 endpoint="mass density" reported="879.19 ± 0.15 kg/m3"
molecule=CCCCC1CCCCC1 endpoint="mass density" reported="792.1 ± 0.15 kg/m3"
molecule=CC1CCCCC1 endpoint="mass density" reported="760.89 ± 0.15 kg/m3"

Kindly review the next compound as well.
Q. Give its mass density value. Item: "CCC1CCCCC1"
A. 780.16 ± 0.15 kg/m3

###

Conditions: 313.15 K; 100 kPa; Liquid; Vibrating tube method
± gives the expanded uncertainty stated by the source.
endpoint: mass density
Mention the unit after the number when you answer.

Solved cases (3 shown):
molecule="CC1CCCCC1 [methylcyclohexane]" reported="752.17 ± 0.16 kg/m3"
molecule="C1CCC(C2CCCCC2)CC1 [1,1'-bicyclohexyl]" reported="872.01 ± 0.15 kg/m3"
molecule="CCCCC1CCCCC1 [butylcyclohexane]" reported="784.56 ± 0.15 kg/m3"

Kindly review the next molecule as well.
Q. Give its mass density value. Item: CCC1CCCCC1 [ethylcyclohexane]
A. 772.04 ± 0.15 kg/m3

###

Conditions: 293.15 K; 100 kPa; Liquid; Vibrating tube method
endpoint: mass density (kg/m3)
Numbers only, in kg/m3.

Solved cases (3 shown):
compound="CCCCC1CCCCC1 [butylcyclohexane]" endpoint="mass density" reported=799.6
compound="CC1CCCCC1 [methylcyclohexane]" endpoint="mass density" reported=769.58
compound="C1CCC(C2CCCCC2)CC1 [1,1'-bicyclohexyl]" endpoint="mass density" reported=886.39

Kindly review the next compound as well.
Q. Give its mass density value. Item: CCC1CCCCC1 [ethylcyclohexane]
A. 788.23

###

Assay: refractive index (Na D-line) (dimensionless)
Conditions: 293.15 K; 101.33 kPa; Liquid; Standard Abbe refractometry
Would you mind telling me the reported refractive index of each entry?
One number for each entry.

Solved cases (3 shown):
molecule=CCC1CCCCC1 reported=1.4275
molecule=C1CCC(C2CCCCC2)CC1 reported=1.4787
molecule=CC1CCCCC1 reported=1.4175

Kindly review the next compound as well.
Q. Give its refractive index value. Item: "CCCCC1CCCCC1"
A. 1.4399
